# TARGET OR TEST SYSTEM: MMP-13 (Homo sapiens, UniProt P45452)
# Construct: made in house
# METHOD DESCRIPTION: In-vitro fluorescence assay of MMP-13 activity
# Type: biochemical
# CONDITION CONTEXT: recombinant human catalytic domain of MMP-13; read-out: MMP-13 IC50
PROPERTY MEASURED: IC50 (nM)

MOLECULE	PROPERTY MEASURED	UNIT TAG	EXPERIMENTAL VALUE
Cc1nc(-c2ccc(C(F)(F)F)cc2)sc1C(=O)Nc1ccc(-c2ccc(S(=O)(=O)N[C@H](C(=O)O)C(C)C)cc2)cc1	IC50	nM	121

(1) CCOC(=O)COc1cccc2oc(C(=O)Nc3ccc(-c4ccc(S(=O)(=O)N[C@H](C(=O)O)C(C)C)cc4)cc3)c(C)c12
(2) Cc1c(C(=O)Nc2ccc(-c3ccc(S(=O)(=O)N[C@H](C(=O)O)C(C)C)cc3)cc2)oc2cccc(NC(=O)C3CC3)c12
Prompt: Kindly compare 1 with 2 and tell me which has the lower IC50 figure. Respond with the label that goes with your answer.
Completion: 1
(1: 8.8 nM, 2: 32 nM)

(a) Cc1cc(-c2ccc(S(=O)(=O)N[C@@H](C(=O)O)C(C)C)cc2)cc(C)c1OC(=O)c1cc2ccccc2o1
(b) COC(=O)COc1cccc2oc(C(=O)Nc3ccc(-c4ccc(S(=O)(=O)N[C@H](C(=O)O)C(C)C)cc4)cc3)c(C)c12
(c) C=Cc1cccc2oc(C(=O)Nc3ccc(-c4ccc(S(=O)(=O)N(C)[C@H](C(=O)O)C(C)C)cc4)cc3)c(C)c12
(d) Cc1c(C(=O)Nc2ccc(-c3ccc(S(=O)(=O)N[C@H](C(=O)O)C(C)C)cc3)cc2)oc2cccc(OCCNC(=O)OC(C)(C)C)c12
(e) CC(C)[C@@H](NS(=O)(=O)c1ccc(-c2ccc(NC(=O)c3nc4ccccc4s3)cc2)cc1)C(=O)O
Prompt: Sort entries by IC50 from minimum to maximum value. When ranking, write the labels in the order the request describes.
Completion: e, a, b, d, c
